meta.source: patent US20250051277A1

# Method: Plasma Stability Assay of Example A3, human plasma
# Conditions used: 30 min; 5 μM, 37° C.; % of prodrug compound remaining
Metric name: Human Plasma Prodrug (%)

Please review the following examples before continuing.
molecule=COc1ccc([C@@]23CCC(OC(=O)c4ccc(F)cc4)=C[C@@H]2N(C)CC3)cc1OC metric_name="Human Plasma Prodrug (%)" observed_value=90.1%
molecule=COc1ccc([C@@]23CCC(OC(=O)C(C)(C)C)=C[C@@H]2N(C)CC3)cc1OC metric_name="Human Plasma Prodrug (%)" observed_value=41.4%
molecule=C=C(C)C(=O)OC1=C[C@@H]2N(C)CC[C@]2(c2ccc(OC)c(OC)c2)CC1 metric_name="Human Plasma Prodrug (%)" observed_value=2.3%
molecule="COc1ccc([C@@]23CCC(=O)C[C@@H]2N(C)CC3)cc1OC [Compound 001, mesembrine, reference compound]" metric_name="Human Plasma Prodrug (%)" observed_value=>99%

For this molecule ( COc1ccc([C@@]23CCC(OC(=O)c4cccc(C)c4C)=C[C@@H]2N(C)CC3)cc1OC ), measured Human Plasma Prodrug (%) is 96.5%

Given item COc1ccc([C@@]23CCC(OC(=O)C(c4ccccc4)c4ccccc4)=C[C@@H]2N(C)CC3)cc1OC , the value recorded as its Human Plasma Prodrug (%) is 75.2%

====

# Type: physicochemical
# Conditions used: SGF with pepsin, pH 1.5, 37° C., 0.5 mM; time 1 min
Metric name: Condition 1 Conversion (%)
Field format: number, assumed %, no unit text.

smiles_representation=COc1ccc([C@@]23CCC(=NNc4ccc(Cl)cc4)C[C@@H]2N(C)CC3)cc1OC observed_value=0
smiles_representation=COc1ccc([C@@]23CC/C(=N\NC(=O)NCCc4cccs4)C[C@@H]2N(C)CC3)cc1OC observed_value=0
smiles_representation=COc1ccc(NC(=O)NN=C2CC[C@@]3(c4ccc(OC)c(OC)c4)CCN(C)[C@H]3C2)cc1 observed_value=0

Consider the record given below.
The reported Condition 1 Conversion (%) of the compound COc1ccc([C@@]23CCC(=NNCc4cccnc4)C[C@@H]2N(C)CC3)cc1OC was 20

====

Form field: Condition 2 Conversion (%) (one value per entry).
# Format: physicochemical
# Conditions used: DI water, 25° C., 0.5 mM; time 1 h
Field format: number, assumed %, no unit text.

Worked cases, Condition 2 Conversion (%) given:
compound=COc1ccc([C@@]23CCC(OC(=O)C(C)(C)C)=C[C@@H]2N(C)CC3)cc1OC observed_value=0
compound=COc1ccc([C@@]23CC/C(=N\NC(=O)c4ccccc4C(=O)O)C[C@@H]2N(C)CC3)cc1OC observed_value=15.25
compound=COc1ccc([C@@]23CCC(=NOCC4CC4)C[C@@H]2N(C)CC3)cc1OC observed_value=0

Form field Condition 2 Conversion (%), entry COc1ccc(C23CCC(=NNC(=O)Nc4ccccc4)C[C@@H]2N(C)CC3)cc1OC (stereo in doubt) : 0.55

Measured Condition 2 Conversion (%) of COc1ccc([C@@]23CCC(=NOCCO)C[C@@H]2N(C)CC3)cc1OC : 0

The reported value for COc1ccc([C@@]23CCC(=NNc4ccc(F)cc4)C[C@@H]2N(C)CC3)cc1OC in terms of Condition 2 Conversion (%) is 0

So, C/C=C(\C)C(=O)OC1=C[C@@H]2N(C)CC[C@]2(c2ccc(OC)c(OC)c2)CC1 ? Its Condition 2 Conversion (%) was 0

Documented Condition 2 Conversion (%) of COc1ccc([C@@]23CCC(=NOCC(=O)OC(C)(C)C)C[C@@H]2N(C)CC3)cc1OC : 0

====

Recorded Condition 2 Conversion (%) values for a group of molecules are listed next.
# Type: physicochemical
# Conditions used: DI water, 25° C., 0.5 mM; time 1 h
Provide only the numeric value, understood in %.

Study these solved cases before continuing.
molecule="COc1ccc([C@@]23CC/C(=N/OC(C)(C)OC)C[C@@H]2N(C)CC3)cc1OC [Compound 219]" observed_value=0
molecule="COc1ccc([C@@]23CCC(=NOCCOc4ccccc4)C[C@@H]2N(C)CC3)cc1OC [Compound 234]" observed_value=0
molecule="COc1ccc(NC(=O)NN=C2CC[C@@]3(c4ccc(OC)c(OC)c4)CCN(C)[C@H]3C2)cc1 [Compound 254]" observed_value=1.1
molecule="CCC(=O)OC1=C[C@@H]2N(C)CC[C@]2(c2ccc(OC)c(OC)c2)CC1 [Compound 317]" observed_value=0
molecule="COc1ccc([C@@]23CCC(OC(=O)C4CC4)=C[C@@H]2N(C)CC3)cc1OC [Compound 312]" observed_value=0
molecule="COc1ccc([C@@]23CCC(OC(C)=O)=C[C@@H]2N(C)CC3)cc1OC [Compound 026]" observed_value=0
molecule="COc1ccc([C@@]23CCC(=NNc4ccc(Cl)cc4)C[C@@H]2N(C)CC3)cc1OC [Compound 221]" observed_value=0

Now consider the entry below.
Summary for this molecule, COc1ccc([C@@]23CCC(=NNC(=O)Nc4ccc(C(=O)O)cc4)C[C@@H]2N(C)CC3)cc1OC (racemic) [Compound 259] : Condition 2 Conversion (%) is 2

====

// Prodrug (%) remaining, Human Plasma lookup, one value per entry
# Conditions used: 0.5 h, 10 μM
Only the number, expressed in %, is required.

Some solved cases for reference:
compound="CCCCCC(C)C(=O)OC1=C[C@@H]2N(C)CC[C@]2(c2ccc(OC)c(OC)c2)CC1 (stereo partly shown)" observed_value=11.6
compound=CCCC(CCC)C(=O)OC1=C[C@@H]2N(C)CC[C@]2(c2ccc(OC)c(OC)c2)CC1 observed_value=96.6
compound="CCC(C)C(=O)OC1=C[C@@H]2N(C)CC[C@]2(c2ccc(OC)c(OC)c2)CC1 (stereo partly shown)" observed_value=4.8

Attention now shifts to the item below.
Entry CCCC(CC)CC(=O)OC1=C[C@@H]2N(C)CC[C@]2(c2ccc(OC)c(OC)c2)CC1 (stereo partly shown) , Prodrug (%) remaining, Human Plasma reported as 85.0

====

# Format: physicochemical
# Conditions used: SGF with pepsin, pH 1.5, 37° C., 0.5 mM; time 4 h
Metric name: Condition 1 Conversion (%)
Write it as a number; the unit % goes unstated.

compound=COc1ccc([C@]23CCN(C)[C@H]2CC2(CC3)SCCS2)cc1OC observed_value=0
compound=COc1ccc([C@@]23CCC(=NOC(C)(C)C)C[C@@H]2N(C)CC3)cc1OC observed_value=23.6
compound=COc1ccc([C@@]23CC/C(=N\NC(=O)CCC(=O)O)C[C@@H]2N(C)CC3)cc1OC observed_value=100
compound="COc1ccc([C@@]23CCC(=NO)C[C@@H]2N(C)CC3)cc1OC (mixture of isomers)" observed_value=89.2
compound=COc1ccc([C@@]23CCC(=NOc4ccccc4)C[C@@H]2N(C)CC3)cc1OC observed_value=1.5

The measured Condition 1 Conversion (%) associated with COc1ccc(C23CCN(C)C2CC2(CC3)OCCO2)cc1OC (centres unmarked) reads 0

Value of measured Condition 1 Conversion (%) for the entry COc1ccc([C@]23CCN(C)[C@H]2CC2(CC3)OCCO2)cc1OC : 0

In plain terms, COc1ccc([C@@]23CCC(OC(=O)c4ccccc4C)=C[C@@H]2N(C)CC3)cc1OC has a documented Condition 1 Conversion (%) of 0

====

# Conditions used: 15 min, 5 μM
Please note: true applies when Mouse Plasma Compound 001 (%) is 60% or greater, and false applies otherwise.

Answered cases to consult:
smiles_representation=COc1ccc([C@@]23CCC(OC(=O)c4ccc(F)cc4)=C[C@@H]2N(C)CC3)cc1OC category=false
smiles_representation=COc1ccc([C@@]23CCC(OC(=O)c4ccc(C(C)C)cc4)=C[C@@H]2N(C)CC3)cc1OC category=false
smiles_representation=COc1ccc([C@@]23CCC(OC(=O)c4cccc(N(C)C)c4)=C[C@@H]2N(C)CC3)cc1OC category=true
smiles_representation=COc1ccc([C@@]23CCC(OC(=O)c4cccc(C(C)(C)C)c4)=C[C@@H]2N(C)CC3)cc1OC category=false
smiles_representation=COc1ccc([C@@]23CCC(OC(=O)c4ccccc4C)=C[C@@H]2N(C)CC3)cc1OC category=false
smiles_representation=COc1ccc([C@@]23CCC(OC(=O)c4ccc(C#N)cc4)=C[C@@H]2N(C)CC3)cc1OC category=false
smiles_representation=COc1ccc([C@@]23CCC(OC(=O)CC(C)C)=C[C@@H]2N(C)CC3)cc1OC category=true
smiles_representation=COc1ccc([C@@]23CCC(OC(=O)C4CC4)=C[C@@H]2N(C)CC3)cc1OC category=true

**Query** Tell me whether Mouse Plasma Compound 001 (%) is at least 60% here: C/C=C(\C)C(=O)OC1=C[C@@H]2N(C)CC[C@]2(c2ccc(OC)c(OC)c2)CC1
**Result** false

====

Listed compounds paired with reported Prodrug (%) remaining, Rat Plasma
# Conditions used: 0.5 h, 10 μM
Provide the reading as a plain figure in %.

compound="CCCC(C)C(=O)OC1=C[C@@H]2N(C)CC[C@]2(c2ccc(OC)c(OC)c2)CC1 (stereo partly drawn)" metric_name="Prodrug (%) remaining, Rat Plasma" observed_value=0.1

COc1ccc([C@@]23CCC(OC(=O)CC(C)(C)C)=C[C@@H]2N(C)CC3)cc1OC yielded Prodrug (%) remaining, Rat Plasma of 45.7

Recorded Prodrug (%) remaining, Rat Plasma (compound CCCCCCCC(=O)OC1=C[C@@H]2N(C)CC[C@]2(c2ccc(OC)c(OC)c2)CC1 ): 0.1

The recorded Prodrug (%) remaining, Rat Plasma for entry COc1ccc([C@@]23CCC(OC(=O)CCN)=C[C@@H]2N(C)CC3)cc1OC equals 0.5

# compound CCC(C)(C)C(=O)OC1=C[C@@H]2N(C)CC[C@]2(c2ccc(OC)c(OC)c2)CC1 ; its Prodrug (%) remaining, Rat Plasma = 69.9

# Prodrug (%) remaining, Rat Plasma (compound: CCCC(CC)CC(=O)OC1=C[C@@H]2N(C)CC[C@]2(c2ccc(OC)c(OC)c2)CC1 (stereo partly drawn) ) is 0.7
